Test system: HOP-18
Assay: NCI tumour cell line growth inhibition, 48 h
Calls of active or inactive are those of the source. No stated cut-off is given here; in the data, active = GI50 up to about 1.1 µM and inactive = higher.
Hello, when you answer, please use one of the following outcomes: y for active, n for inactive

query: So what was the verdict on CCOC(C)OC1CC(n2cc(C)c(=O)[nH]c2=O)OC1CO (stereo not drawn) in this test?
result: n

query: Now the compound C[P+](C)(C)C
result: n

query: Now the compound COc1ccc(C2NCCc3c2[nH]c2ccccc32)cc1 (stereo not drawn)
result: n

query: Now the compound Cc1ccc(C)c(N2C(=O)C(=O)C(c3nc4ccccc4o3)C(=O)C2=O)c1
result: n

query: Now the compound CC1=C[C@]2(CC(C)C3C(CC4(C)C5CCC6C(C)(C)C(=O)CC[C@@]67C[C@@]57CC[C@]34C)O2)OC1=O (stereo partly drawn)
result: n

query: Now the compound COC1C(O)CC(OC2CC(Oc3cc4cc5c(c(O)c4c(O)c3C)C(=O)[C@@H](OC3CC(OC4CC(OC6CC(C)(O)C(OC(C)=O)C(C)O6)C(O)C(C)O4)C(O)C(C)O3)[C@H]([C@H](OC)C(=O)[C@@H](O)[C@@H](C)O)C5)OC(C)C2OC(C)=O)OC1C (stereo partly drawn) [CHROMOMYCIN]
result: y

query: Now the compound CN(C)CCNC(=O)c1cccc2c1C(=O)c1ccccc1C2=O
result: n

query: Now the compound O=C(O)Cc1cc(=O)[nH]c2c1C(=O)CCC2
result: n

query: Now the compound Cc1cc(N(CCOS(C)(=O)=O)CCOS(C)(=O)=O)ccc1/C=N/c1ccc(-c2nc(Cc3ccccc3)sc2C)cc1
result: n

query: Now the compound CC1=CC(=O)CCC2(C)C1CC[C@@H]2OC=O (stereo partly drawn)
result: n

query: Now the compound CC1OC(OC2C(OC(=O)[C@]34CCC(C)(C)CC3C3=CCC5[C@@]6(C)C[C@H](O)[C@H](OC7OC(CO)C(O)C(O)C7N)[C@@](C)(C(=O)O)C6CC[C@@]5(C)C3(C)CC4)OCC(O)C2O)C(O)C(O)C1OC1OCC(O)C(O)C1O (stereo partly drawn)
result: n

query: Now the compound c1ccc2c(NCCCCCCCCNc3c4ccccc4nc4ccccc34)c3ccccc3nc2c1
result: n

query: Now the compound COc1ccc(C2C(Cl)C(=O)N2NC(=O)Cc2ccccc2)cc1 (stereo not drawn)
result: n
